assay.info: antimalarial activity against Dd2 strain (AID 2302);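 note: 0% = DMSO untreated growth and 100% = chloroquine plus artemisinin killed control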
assay.setup: P. falciparum Dd2 in RBCs, LDH growth readout, 72 h; at 2 µM
Calls of active or inactive are those of the source.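 Rule for the calls: active = growth inhibition above 50% at the single 2 µM test dose, taken to imply half-maximal potency below 2 µM; inactive = the rest.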
Select the matching outcome among active, inactive

Prompt: Entry COc1ccc(CNCc2ccsc2)cc1-c1ccc(OC)c(S(=O)(=O)NCCN2CCCC2)c1 : call = ?
Completion: active

Prompt: Entry CCOC(=O)CN(c1ccc(Br)cc1OCCOc1cc(Br)ccc1N(CC(=O)OCC)C(C)C(=O)OCC)C(C)C(=O)OCC (stereo unspecified) : call = ?
Completion: inactive

Prompt: Entry O=C(Nc1ccc(OC2CCN(Cc3ccc(F)cc3)C2)cc1)c1cccs1 (stereo unspecified) : call = ?
Completion: active

Prompt: Entry CCOc1ccc(NC(=O)c2cccc(CN3CCCN(Cc4cccc(O)c4)CC3)c2)cc1 : call = ?
Completion: inactive

Prompt: Entry Cc1ccc(CNC(=O)[C@H](CCCN)Nc2nc(NCC3CCCCC3)ncc2C)cc1 : call = ?
Completion: inactive

====

assay.info: inhibition of 3D7 malaria parasite growth – strain 3D7 (AID 2306);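 note: 0% = DMSO wells and 100% = chloroquine plus artemisinin control wells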
assay.setup: P. falciparum 3D7 erythrocytic growth, LDH absorbance, 72 h; at 2 µM; stronger effect = higher value
Calls of active or inactive are those of the source. No rule for the calls is given here.
Below: a set of entries, each annotated with reported growth inhibition.

Prompt: Which measured growth inhibition value corresponds to COc1ccc(-c2cc(C(=O)N3CCc4ccccc43)c3ccccc3n2)cc1OC ?
Completion: 85% (active)

Prompt: Which measured growth inhibition value corresponds to O=C(NCCCCN1CCN(c2cccc(Cl)c2Cl)CC1)c1ccc2c(c1)CCN(C1CCC1)CC2 ?
Completion: 95% (active)

====

assay.info: HepG2 cytotoxicity, primary screen, cytotoxicity control for P. falciparum antimalarial project, cell-based, ATP luminescence (AID 2303);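 note: 0% = DMSO wells and 100% = digitonin-killed cells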
assay.setup: HepG2 viability, 24-48 h, at 10 µM, stronger effect = higher value
Rule: measured inhibition below 20% gets Yes; anything equal to or greater than 20% gets No.

compound="O=C(/C=C/c1c(Cl)cccc1Cl)NC1CCC(CN2CCC(c3c[nH]c4ccncc34)CC2)CC1 (stereo unspecified)" classification=No
compound="CCCCC(N)COc1cccc2c(-c3ccncc3)c(-c3cccc(NC(=O)Nc4ccccc4)c3)nn12 (stereo unspecified)" classification=Yes
compound=FC(F)(F)c1ccc2nccc(NN=Cc3cccnc3)c2c1 classification=Yes

Prompt: Item CC(C)c1ccc2oc(-c3ccc(NC(=O)c4ccc([N+](=O)[O-])o4)cc3)nc2c1 : inhibition beneath 20%, strictly?
Completion: No

Prompt: Item CN1CCCN(c2ccnc3cc4c(cc23)N(C(=O)c2ccccc2Cl)CC4)CC1 : inhibition beneath 20%, strictly?
Completion: Yes

Prompt: Item CC(=O)Nc1nc(C(=O)Nc2ccc(-c3ccc(-c4nc5ccc(F)cc5[nH]4)cc3)cc2)cs1 : inhibition beneath 20%, strictly?
Completion: Yes

====

Below: a set of entries, each annotated with reported growth inhibition.
assay.info: inhibition of 3D7 malaria parasite growth – strain 3D7 (AID 2306);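 note: 0% = DMSO wells and 100% = chloroquine plus artemisinin control wells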
assay.setup: P. falciparum 3D7 erythrocytic growth, LDH absorbance, 72 h; at 2 µM; stronger effect = higher value
Answer with a number only, understood to be in %.

Completed entries (count: 3):
compound="COc1ccc2c(c1)CC(C)(C)NC2CCCCCCCCC1NC(C)(C)Cc2cc(OC)ccc21 (configuration not stated)" measured_number=98
compound=Nc1nc2c(ncn2OC[C@H]2COP(=O)(O)CO2)c(=O)[nH]1 measured_number=92
compound=Cc1cccc2[nH]c(-c3cccc(-c4cccc(NC(=O)c5cncn5C)c4)c3)nc12 measured_number=103

Prompt: Which measured growth inhibition value corresponds to CC(=O)NCCNc1nccc(N2CCc3ncnc(Nc4ccc(OCc5ccccn5)c(Cl)c4)c3C2)n1 ?
Completion: 99

Prompt: Which measured growth inhibition value corresponds to Cc1cccc2[nH]c(-c3ccc(-c4ccc(CN5CCC(CO)CC5)cc4)s3)nc12 ?
Completion: 101

Prompt: Which measured growth inhibition value corresponds to COCCC[C@H]1C(=O)O[C@H]2CCC[C@@H]21 ?
Completion: 93
